B1: DnaJ homolog subfamily C member 5, residues 16 to 77; numbered along this chain, Q9H3Z4 (parent)
chain: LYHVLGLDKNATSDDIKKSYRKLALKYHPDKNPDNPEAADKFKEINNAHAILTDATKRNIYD

# Variants of: B1
# assayName: abundance fitness (aPCA) (normalised: wild type 0, dead -1); higher = more abundant; growth selection in yeast, the domain comes from the species named
# setupConditions: Homo sapiens
measureName: abundance fitness

> print(dat)
    variantdescriptor  numericvalue
 1               L23E        -0.067
 2               Y20M        -0.414
 3               D14Y        -0.431
 4               A24I         0.086
 5                D8I        -0.807
 6               I45S         -0.47
 7               A48V        -0.777
 8               D14S        -0.242
 9               K22S         0.166
10               K17L         -0.18
11               R58Y        -0.575
12               N35M        -0.431
13               S13Y        -0.188
14               N32D        -0.282
15               H49N        -0.062
16               A38S        -0.088
17               D30R        -0.207
18               D54V        -0.613
19               A38I        -0.043
20               T53N         0.101
21                H3E        -0.114
22               A38H        -0.169
23               K43T         0.051
24               I45E        -0.203
25               N10Q        -0.266
26               D34T        -0.257
27               D14Q        -0.394
28                D8S        -0.378
29               P33E        -0.035
30               I51L        -0.149
31               Y27I        -0.715
32               Y27D        -0.316
33               K41S        -0.223
34               H28V        -0.459
35               K26R        -0.214
36               S19A          0.02
37               T56I        -0.425
38               F42W         -0.05
39               N46F        -0.065
40               Y27G         -0.27
41               T56K        -0.101
42               T56V        -0.396
43               K41V        -0.278
44                L5R        -0.889
45               H49C        -0.405
46               K18R         -0.13
47               D14F        -0.848
48               N32A        -0.349
49               T12W         -1.31
50               K43A         0.299
51               L25H        -0.442
52               T12Y         -1.07
53               K18Y        -0.333
54                L1A        -0.124
55               Y27N         -0.83
56                V4S        -0.259
57               K22P        -0.266
58               K31W        -0.626
59               Y20I        -0.603
60               P33V        -0.225
61                L5Q         0.084
62               N32Y         -0.67
63               K18I        -0.005
64               T12M        -0.678
65               D40C        -0.012
66               T56Q        -0.417
67               D34E        -0.079
68               I60G         0.223
69                L5T        -0.368
70               D34A        -0.145
71               E37P        -0.441
72               D14K        -0.209
73               D62S        -0.421
74               A24T         0.002
75               N35I        -0.255
76               I45Y        -0.366
77                D8M        -0.355
78               D14C        -0.549
79               D14T        -0.346
80               A55C         -0.37
81               Y27W         0.231
82               D34M        -0.694
83                H3R        -0.185
84               A24E         0.028
85               K17W        -0.204
86               I51V         0.106
87               D62L        -0.472
88               Y61R          0.03
89               A24M        -0.028
90               S13V        -0.162
91               R58G         -0.21
